- Read-out: Intercellular Adhesion Molecule 1 (ICAM1), ICAM1 (gene 3383)
- Experimental Details: BSK_KF3CT_ICAM1: BioMAP Diversity Plus: KF3CT Assay for Intercellular Adhesion Molecule 1 (ICAM1) Biomarker Activity (AID 2283067)
- Reported Conditions: primary human keratinocytes with fibroblasts; actives raise or lower the signal
Active and inactive are the calls of the source. Rule for the calls: active = hit-call score of the fitted dose curve at least 0.9, where 1 is the maximum; inactive = score below 0.9.
Result category, one only: TRUE = active, FALSE = inactive

O=C(CC(=O)C(F)(F)C(F)(F)C(F)(F)F)c1cccs1 | FALSE

Q: What is the recorded call for this compound in the test? CN(Cc1cnc2nc(N)nc(N)c2n1)c1ccc(C(=O)N[C@@H](CCC(=O)O)C(=O)O)cc1
Result: FALSE

Q: What is the recorded call for this compound in the test? Oc1ccc(Cc2ccccc2O)cc1
Result: FALSE

Q: What is the recorded call for this compound in the test? CN(C)c1ccc(C(=C2C=CC(=[N+](C)C)C=C2)c2ccccc2)cc1
Result: TRUE

Q: What is the recorded call for this compound in the test? C[C@]12CC[C@@H]3c4ccc(O)cc4CC[C@H]3[C@@H]1C[C@@H](O)[C@@H]2O
Result: FALSE

Q: What is the recorded call for this compound in the test? O=C(CCCN1CCC(O)(c2ccc(Cl)cc2)CC1)c1ccc(F)cc1
Result: FALSE

Q: What is the recorded call for this compound in the test? CN(CCO)S(=O)(=O)C(F)(F)C(F)(F)C(F)(F)C(F)(F)C(F)(F)C(F)(F)C(F)(F)C(F)(F)F
Result: FALSE

Q: What is the recorded call for this compound in the test? O=C(c1ccccc1)c1ccccc1
Result: FALSE

Q: What is the recorded call for this compound in the test? Clc1ccc(Nc2nnc(Cc3ccncc3)c3ccccc23)cc1
Result: FALSE

Q: What is the recorded call for this compound in the test? CCCCC(CC)C(=O)OCCOCCOCCOCCOC(=O)C(CC)CCCC (stereo unspecified)
Result: FALSE

Q: What is the recorded call for this compound in the test? COc1cccc(O)c1
Result: FALSE

###

- Read-out: C-C motif chemokine 2 (Homo sapiens) (UniProt P13500)
- Experimental Details: BSK_KF3CT_MCP1: BioMAP Diversity Plus: KF3CT Assay for Monocyte Chemoattractant Protein 1 (MCP1/CCL2) Biomarker Activity (AID 2283073)
- Reported Conditions: primary human keratinocytes with fibroblasts; actives raise or lower the signal
The source made the active and inactive calls. The calls were made as follows: active = hit-call score of the fitted dose curve at least 0.9, where 1 is the maximum; inactive = score below 0.9.
Result category, one only: 1 = active, 0 = inactive

Consider the following illustrative entries.
CCCCC(CC)C(=O)O (stereo unspecified) | 0
COC1=CC(=O)C[C@@H](C)[C@]12Oc1c(Cl)c(OC)cc(OC)c1C2=O | 1
CC1=NN(c2ccccc2)C(=O)C1 | 0
CC(=O)Nc1ccc(O)cc1 | 0
O=S(=O)(O)C(F)(F)C(F)(F)C(F)(F)C(F)(F)C(F)(F)C(F)(F)C(F)(F)C(F)(F)C(F)(F)C(F)(F)F | 0

Please look at the following compound next.
Q: What is the recorded call for this compound in the test? CN(C)c1ccc(C(=C2C=CC(=[N+](C)C)C=C2)c2ccccc2)cc1
Result: 1

###

- Read-out: Vascular endothelial growth factor receptor 2 (Homo sapiens)
- Experimental Details: BSK_4H_VEGFRII: BioMAP Diversity Plus: 4H Assay for Vascular endothelial growth factor receptor 2 (VEGFR2) Biomarker Activity (AID 2283031);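 for AC50: cell-surface VEGFR2 protein level quantified by ELISA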
- Reported Conditions: primary human endothelial cells (HUVEC); actives raise or lower the signal
Activity calls are given as the source filed them. The calls were made as follows: active = hit-call score of the fitted dose curve at least 0.9, where 1 is the maximum; inactive = score below 0.9.
Property Name: AC50

Solved cases (5 shown):
CCCCCCCCCCCCCCC | inactive
N=C(N)c1ccc(OCCCCCOc2ccc(C(=N)N)cc2)cc1 | inactive
O=C1OC2(c3ccccc31)c1cc(I)c(O)c(I)c1Oc1c2cc(I)c(O)c1I | 3.36 µM (active)
CCCCC(CC)C(=O)OCCOCCOCCOCCOC(=O)C(CC)CCCC (configuration not stated) | inactive
CC1=NN(c2ccccc2)C(=O)C1 | inactive

Consider Oc1ccc(Cc2ccccc2O)cc1 . Its measured AC50 is inactive

Consider CCC(C)c1ccccc1O (configuration not stated) . Its measured AC50 is inactive

Consider Cc1[nH]nc2c1N=C(c1ccccc1Cl)c1cc([N+](=O)[O-])ccc1N2 . Its measured AC50 is 2.43 µM (active)

Consider O=C(O)CCC(F)(F)C(F)(F)C(F)(F)C(F)(F)C(F)(F)F . Its measured AC50 is inactive

Consider CN(Cc1cnc2nc(N)nc(N)c2n1)c1ccc(C(=O)N[C@@H](CCC(=O)O)C(=O)O)cc1 . Its measured AC50 is inactive

Consider O=C(c1ccccc1)c1ccccc1 . Its measured AC50 is inactive

Consider O=P(O)(O)CCC(F)(F)C(F)(F)C(F)(F)C(F)(F)C(F)(F)C(F)(F)F . Its measured AC50 is inactive
